src = patent US20250101437

# MEASURED_ON: SARS-CoV-2 spike S1 subunit, original Wuhan (SARS-CoV-2 (Wuhan), UniProt P0DTC2 P0DTC2:16-685)
# PROTOCOL_SUMMARY: filter; dot blot
# CONDITION: tags: Sino Biological 40591-V08B1; label: 5'-32P
# key: entry, value: pKd
// returns pKd (minus log10 of molar concentration), number only

Sample answers from the record:
BINDER: MSA52-T4 (ssDNA) DNA: TTACGTCAAGGTGTCACTCCGTAGGGTTTGGCTCCGGGCCTGGCGTCGGTCGCGAAGCATCTCTTTGGCGTG
PROPERTY_NAME: pKd
ENDPOINT_VALUE: 8.22

BINDER: MSA52-T1 (ssDNA) DNA: TTACGTCAAGGTGTCATTGGCTCCGGGCCTGGCGTCGGTCGTCTCTCGCGAAGCATCTCTTTGGCGTG
PROPERTY_NAME: pKd
ENDPOINT_VALUE: 7.21

BINDER: MSA52-T2 (ssDNA) DNA: TTACGTCAAGGTGTCACTCCGTAGGGTTTGCTGGCGTCGGTCGTCTCTCGCGAAGCATCTCTTTGGCGTG
PROPERTY_NAME: pKd
ENDPOINT_VALUE: 7.27

Moving on to another binder below.
Req: Tell me the measured pKd of MSA52-T3 (ssDNA) DNA: TTACGTCAAGGTGTCACTCCGTAGGGTTTGGCTCCGGGCCTGGCATCTCTTTGGCGTG , please.
Resp: 7.02
